- assay_system: UniProtKB P52333
- assay_overview: JAK Caliper Enzyme Assay at 1 mM ATP
- Assay type: biochemical
pIC50: −log10 of the molar value.
Outcome label depends on pIC50 relative to 7: at/above gives Satisfied, below gives Not satisfied.

In: Could you tell me if the measured pIC50 of C=CC(=O)N1C[C@H](Nc2ncnc3[nH]ccc23)CC[C@H]1[C@@H](C)O (single isomer, unassigned) [Example 110] reaches 7 or more?
Out: Not satisfied

In: Could you tell me if the measured pIC50 of C=CC(=O)N1CCC(Oc2cnc3[nH]cc(C(=O)NCC4(O)CCC(C)C4)c3n2)CC1 (racemic) [Example 201] reaches 7 or more?
Out: Not satisfied

In: Could you tell me if the measured pIC50 of C=CC(=O)N1CCC(Oc2cnc3[nH]cc(C(=O)NCc4ccccc4)c3c2)CC1 [Example 342] reaches 7 or more?
Out: Not satisfied

In: Could you tell me if the measured pIC50 of C=CC(=O)N1C[C@H](Nc2ncnc3[nH]ccc23)CC[C@@H]1CNC(C)=O (single isomer, unassigned) [Example 89] reaches 7 or more?
Out: Not satisfied

In: Could you tell me if the measured pIC50 of C=CC(=O)N1CCC(Nc2cnc3[nH]cc(C(=O)NCc4ccc(F)cc4)c3n2)CC1 [Example 188] reaches 7 or more?
Out: Satisfied

In: Could you tell me if the measured pIC50 of C=CC(=O)N1CCC(Oc2cnc3[nH]cc(C(=O)NC4CCCC4)c3n2)CC1 (racemic) [Example 204] reaches 7 or more?
Out: Satisfied

In: Could you tell me if the measured pIC50 of C=CC(=O)N1CCN(c2cnc3[nH]cc(C(=O)NC4CC(F)(F)C4)c3n2)C[C@@H]1CC(C)C [Example 273] reaches 7 or more?
Out: Not satisfied

In: Could you tell me if the measured pIC50 of C=CC(=O)N1CCN(c2cnc3[nH]cc(C(=O)N[C@H](C)COc4ccccc4)c3n2)CC1(C)C [Example 167] reaches 7 or more?
Out: Not satisfied

In: Could you tell me if the measured pIC50 of C=CC(=O)N1CC[C@@H](Nc2cnc3[nH]cc(C(=O)N[C@H](C)COC)c3n2)C[C@H]1C (single isomer, unassigned) [Example 58] reaches 7 or more?
Out: Not satisfied

In: Could you tell me if the measured pIC50 of C#CCOCCc1c[nH]c2ncnc(N[C@@H]3CC[C@H](C)N(C(=O)C=C)C3)c12 [Example 131] reaches 7 or more?
Out: Satisfied

In: Could you tell me if the measured pIC50 of C=CC(=O)N1CCC(Oc2cnc3[nH]cc(C(=O)NCCC(F)(F)F)c3n2)CC1 [Example 198] reaches 7 or more?
Out: Satisfied

In: Could you tell me if the measured pIC50 of C=CC(=O)N1CCN(c2cnc3[nH]cc(C(=O)NC4CC(F)(F)C4)c3n2)CC1(C)C [Example 325] reaches 7 or more?
Out: Not satisfied

###

I'd be grateful if you could share measured pIC50 for these entries.
- assay_system: JAK3 enzyme (Homo sapiens)
- Sequence (P52333 whole entry, species assumed): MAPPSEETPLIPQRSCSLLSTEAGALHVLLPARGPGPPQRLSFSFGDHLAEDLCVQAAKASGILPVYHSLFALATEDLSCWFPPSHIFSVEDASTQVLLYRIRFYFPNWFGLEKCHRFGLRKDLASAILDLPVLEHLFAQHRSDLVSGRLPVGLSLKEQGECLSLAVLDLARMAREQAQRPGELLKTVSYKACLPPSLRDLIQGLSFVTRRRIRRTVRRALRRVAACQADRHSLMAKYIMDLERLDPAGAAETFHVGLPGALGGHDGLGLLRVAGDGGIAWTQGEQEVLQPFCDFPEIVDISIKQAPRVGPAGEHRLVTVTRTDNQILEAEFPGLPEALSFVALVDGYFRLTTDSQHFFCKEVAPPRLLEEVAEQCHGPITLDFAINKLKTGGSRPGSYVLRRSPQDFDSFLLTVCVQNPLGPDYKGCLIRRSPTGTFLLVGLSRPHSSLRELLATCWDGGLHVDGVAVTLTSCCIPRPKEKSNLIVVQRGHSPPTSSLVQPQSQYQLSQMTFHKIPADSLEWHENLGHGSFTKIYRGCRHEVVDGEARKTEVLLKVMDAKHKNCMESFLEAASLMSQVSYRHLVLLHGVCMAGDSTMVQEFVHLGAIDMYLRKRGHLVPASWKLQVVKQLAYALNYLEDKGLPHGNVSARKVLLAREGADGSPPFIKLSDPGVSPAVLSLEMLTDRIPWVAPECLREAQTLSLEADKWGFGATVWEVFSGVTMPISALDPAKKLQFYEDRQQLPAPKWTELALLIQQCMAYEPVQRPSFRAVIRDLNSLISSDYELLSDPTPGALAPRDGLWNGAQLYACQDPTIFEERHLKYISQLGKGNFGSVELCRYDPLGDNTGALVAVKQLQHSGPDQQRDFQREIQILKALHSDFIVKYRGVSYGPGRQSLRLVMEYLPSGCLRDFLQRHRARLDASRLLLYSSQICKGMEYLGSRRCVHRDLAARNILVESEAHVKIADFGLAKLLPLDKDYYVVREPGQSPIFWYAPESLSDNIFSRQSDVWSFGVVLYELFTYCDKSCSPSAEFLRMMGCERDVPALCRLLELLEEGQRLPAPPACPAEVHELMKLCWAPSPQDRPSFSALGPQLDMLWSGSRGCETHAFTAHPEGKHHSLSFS
- assay_overview: JAK Caliper Enzyme Assay at 1 mM ATP
- Format: biochemical
# log scale: pIC50 equals minus log10 of the concentration in mol/L

In: Write down the reported pIC50 of C=CC(=O)N1CCC(Nc2cnc3[nH]cc(C(=O)NCc4ccc(Cl)cn4)c3n2)CC1 [Example 186] , test system: JAK3 enzyme (Homo sapiens).
Out: 7.82

In: Write down the reported pIC50 of C=CC(=O)N1CC[C@@H](Nc2cnc3[nH]cc(C(=O)N[C@@H](C)COC)c3n2)C[C@H]1C (stereo in doubt) [Example 56] , test system: JAK3 enzyme (Homo sapiens).
Out: 7.15

In: Write down the reported pIC50 of C=CC(=O)N1CCC(C)(Oc2cnc3[nH]cc(C(=O)NCC)c3n2)CC1 [Example 61] , test system: JAK3 enzyme (Homo sapiens).
Out: 6.25

In: Write down the reported pIC50 of C=CC(=O)N1CCN(c2cnc3[nH]cc(C(=O)N[C@H](CC)CC#N)c3n2)CC1(C)C [Example 318] , test system: JAK3 enzyme (Homo sapiens).
Out: 7.23
